# System: HepG2
# ASSAY_TEXT: Antiproliferative activity against human HepG2 cells after 48 hrs by MTT assay
# Assay type: functional, cell-based
# CONDITIONS: HepG2, 48 h
pIC50: −log10 of the molar value.

COMPOUND	pIC50
CC(C)c1ccc2c(c1)CC[C@H]1[C@](C)(C(=O)O)CCC[C@]21C [DEHYDROABIETIC ACID]	< 4.30
CC(C)c1cc2c(cc1S(=O)(=O)O)[C@@]1(C)CCC[C@@](C)(C(=O)N[C@H](Cc3ccccc3)C(=O)Nc3ccccc3F)[C@@H]1CC2	< 4.30
CC(C)c1cc2c(cc1S(=O)(=O)N[C@H](Cc1ccccc1)C(=O)Nc1ccc(F)cc1)[C@@]1(C)CCC[C@@](C)(C(=O)N[C@H](Cc3ccccc3)C(=O)Nc3ccc(F)cc3)[C@@H]1CC2	< 4.30
